- Test Description: chemical genetic growth profiling, strain panel (AID 1159580);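 further: tested at 20 µM; growth read once vehicle control cultures reached saturation at 30 °C; lower values mean less growth of the strain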
- Test Parameters: S. cerevisiae deletion strains, growth OD, locus YDR150W, strain NUM1
The whole screen tested about 5,500 compounds, of which about 2,000 (36%) were called active. Not shown: some 18% with an inconclusive outcome. No stated cut-off is given here; in the data, active means normalized growth mostly below about 0.91 (no sharp cut-off); inconclusive means no clear call, values can overlap the other calls; inactive means mostly above about 0.92. This is one part of the list.
Just give me one of these, please: active, inactive

Worked examples, 5 compounds total:
Compound	Assigned Category
CCN(CC)C(=O)c1cccc(C)c1	inactive
C[Se]C[C@H](N)C(=O)O	inactive
O=C1CC2OCC=C3CN4CC[C@]56c7ccccc7N1C5[C@H]2[C@H]3CC46 (some centres undefined)	inactive
Cc1ccc(NC(=S)NCCO)c(C)c1	inactive
OC(Cn1cncn1)(Cn1cncn1)c1ccc(F)cc1F	inactive

Status in this test for OC(CN1CCN(c2nc3ccc(Cl)cc3s2)CC1)CN1CCCN(c2ncc(C(F)(F)F)cc2Cl)CC1 (centres undefined) ?
inactive

Status in this test for O=C(CSCc1cccc2ccccc12)NNC(=S)Nc1ccccc1Cl ?
inactive

Status in this test for CCCNC1CCc2nc(N)sc2C1 (centres undefined) ?
inactive

Status in this test for COCCCNC(=S)Nc1ccc(C)cc1C ?
inactive

Status in this test for COc1ccccc1N=C(N)SCc1ccccc1 ?
inactive

Status in this test for N#Cc1c(N)oc(-c2ccco2)c1-c1ccco1 ?
inactive

Status in this test for CC(C)NCC(O)COc1cccc2ccccc12 (centres undefined) ?
inactive
